Origin of measurements: patent US7371749B2

target.system: human adenosine A2A receptor (Homo sapiens)
Construct: expressed in transfected cells; host or cells: CHO cells, semliki forest virus expression system; membrane preparation
Sequence (P29274 whole entry): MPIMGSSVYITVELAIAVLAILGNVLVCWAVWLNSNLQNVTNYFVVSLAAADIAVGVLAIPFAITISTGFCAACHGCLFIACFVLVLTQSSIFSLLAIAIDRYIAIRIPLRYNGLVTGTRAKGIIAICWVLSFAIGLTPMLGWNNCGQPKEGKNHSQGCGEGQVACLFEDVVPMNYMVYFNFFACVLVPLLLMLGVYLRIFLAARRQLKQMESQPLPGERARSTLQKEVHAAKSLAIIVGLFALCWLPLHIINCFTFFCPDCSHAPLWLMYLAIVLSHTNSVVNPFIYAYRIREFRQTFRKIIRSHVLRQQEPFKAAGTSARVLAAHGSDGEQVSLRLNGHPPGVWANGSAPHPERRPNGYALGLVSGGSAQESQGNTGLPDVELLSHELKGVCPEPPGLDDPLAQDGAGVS
test.name: [3H]-SCH-58261 binding assay on human adenosine A2A receptor expressed in CHO cell membranes (SPA)
condition.details: displacement of [3H]-SCH-58261 (1 nM); recombinant receptor in CHO membranes; Ki by Cheng-Prussoff equation; read-out: hA2 (pKi) (converted)
Experimental: Human Adenosine A2A Receptor The human adenosine A2A receptor was recombinantly expressed in Chinese hamster ovary (CHO) cells using the semliki forest virus expression system. […] Assay plates were incubated for 1 hour at room temperature before centrifugation and then bound ligand determined using a Packard Topcount scintillation counter. IC50 values were calculated using a non-linear curve fitting program and Ki values calculated using the Cheng-Prussoff equation.
parameter: Ki (nM)

INSERT INTO assay_data (chemical_structure, meas_value) VALUES
  ('COCCN(C)Cc1ncc(C(=O)Nc2nc3c(OC)ccc(N4CCOCC4)c3s2)n1C', 0.501),
  ('COc1ccc(N2CCOCC2)c2sc(NC(=O)c3cnc(CN4CCOCC4)n3C)nc12', 0.631),
  ('COCc1ncc(C(=O)Nc2nc3c(OC)ccc(N4CCOCC4)c3s2)n1C', 0.501),
  ('COc1ccc(N2CCOCC2)c2sc(NC(=O)c3cnn(CCN4CCCC4)c3)nc12', 0.794);

====

parameter: melting point

INSERT INTO assay_data (chemical_structure, meas_value) VALUES
  ('COc1ccc(N2CCOCC2)c2sc(NC(=O)c3cnn(CCN4CCOCC4)c3)nc12', '204 to 207 °C'),
  ('COCc1ncc(C(=O)Nc2nc3c(OC)ccc(N4CCOCC4)c3s2)n1C', '242 to 245 °C'),
  ('COc1ccc(N2CCOCC2)c2sc(NC(=O)c3cnc(CN4CCOCC4)n3C)nc12', '244 to 246 °C'),
  ('COCCN(C)Cc1ncc(C(=O)Nc2nc3c(OC)ccc(N4CCOCC4)c3s2)n1C', '176 to 178 °C'),
  ('COc1ccc(N2CCOCC2)c2sc(NC(=O)c3cnn(CCN(C)C)c3)nc12', '203 to 205 °C'),
  ('COc1ccc(N2CCOCC2)c2sc(NC(=O)c3cnn(CCN4CCCC4)c3)nc12', '190 to 192 °C'),
  ('COc1ccc(N2CCOCC2)c2sc(NC(=O)c3cnc(CN4CCCC4)n3C)nc12', '255 °C'),
  ('COc1ccc(N2CCOCC2)c2sc(NC(=O)c3cnc(CN(C)C)n3C)nc12', '229 to 231 °C');

====

target.system: human adenosine A2A receptor (Homo sapiens)
Construct: expressed in transfected cells; host or cells: CHO cells, semliki forest virus expression system; membrane preparation
test.name: [3H]-SCH-58261 binding assay on human adenosine A2A receptor expressed in CHO cell membranes (SPA)
condition.details: displacement of [3H]-SCH-58261 (1 nM); recombinant receptor in CHO membranes; Ki by Cheng-Prussoff equation; read-out: hA2 (pKi) (converted)
Checkbox rule: Ki lower than 800 pM = 1; Ki not lower than 800 pM = 0.

INSERT INTO measurements (chemical_structure, class_name) VALUES
  ('COc1ccc(N2CCOCC2)c2sc(NC(=O)c3cnn(CCN4CCOCC4)c3)nc12', 0),
  ('COCCn1cc(C(=O)Nc2nc3c(OC)ccc(N4CCOCC4)c3s2)cn1', 1),
  ('COc1ccc(N2CCOCC2)c2sc(NC(=O)c3cnc(CN4CCCC4)n3C)nc12', 0),
  ('COc1ccc(N2CCOCC2)c2sc(NC(=O)c3cnc(CN(C)C)n3C)nc12', 1);
